Molecular target: T1, Human GDF15 native: naturally produced human GDF15 purchased from Peprotech (human, UniProt Q99988 195-308)
T1 construct: Bought protein
T1 sequence: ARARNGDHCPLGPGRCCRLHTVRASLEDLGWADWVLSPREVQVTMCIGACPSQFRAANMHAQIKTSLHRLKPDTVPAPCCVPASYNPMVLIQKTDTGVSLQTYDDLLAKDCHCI
Experiment: Biacore SPR, IgG captured via anti-human Fc, GDF15 in flow
property_name: Kd (nM)
Output spec: scalar in nM, unitless text.

Value lookup for Kd; key = ABGDF15-A (antibody, human IgG1, kappa, V domains shown, captured through anti-human Fc in the Biacore assay) VH: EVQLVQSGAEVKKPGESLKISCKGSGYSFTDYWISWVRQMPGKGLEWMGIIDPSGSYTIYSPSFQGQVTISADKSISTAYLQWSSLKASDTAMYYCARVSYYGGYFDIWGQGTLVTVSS VL: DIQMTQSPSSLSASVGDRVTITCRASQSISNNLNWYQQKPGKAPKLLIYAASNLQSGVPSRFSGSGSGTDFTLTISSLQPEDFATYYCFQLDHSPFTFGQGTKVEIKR
0.0113
